# measured.target: 5-LO (Homo sapiens)
# experimental.protocol: Cell-free activity assay of human recombinant 5-LO
# Type: biochemical
# Set-up: made in house; host or cells: E. coli (BL21), plasmid pT3-5-LO
# protocol.conditions: 1 mM DTT, 0.01% Triton X100, n=3; read-out: IC50 (with Triton X100), inhibition of 5-LO
# Procedure: E. coli(BL21) was transformed with pT3-5-LO plasmid, and recombinant 5-LO protein was expressed at 30° C. as described.^34 Cells were lysed in 50 mM triethanolamine/HCl pH 8.0, 5 mM EDTA, 1 mM phenylmethanesulphonyl fluoride, soybean trypsin inhibitor (60 μg/mL), and lysozyme (1 mg/mL), homogenized by sonication (3×15 s), and centrifuged at 40,000×g for 20 min at 4° C. […]
assay.readout: pIC50
// scale note: pIC50 = -log10(conc_M); give the bare number

Data request: Which measured pIC50 value corresponds to CC1(C)CCC2=C(O1)c1ccccc1C(=O)C2=O ?
Data returned: 7.05

---

# System: HEL
# experimental.protocol: Cell viability, AML model HEL (FIG. 9a)
# Format: cell-based
# protocol.conditions: Homo sapiens, n=3
assay.readout: IC50 (nM)
Numbers only here, please. The scale is nM.

Data request: Which measured IC50 value corresponds to CC1(C)CCC2=C(O1)c1ccccc1C(=O)C2=O ?
Data returned: 900

---

# measured.target: 12-LO (Homo sapiens)
# Construct: endogenous in cells
# Sequence (P18054 1-663): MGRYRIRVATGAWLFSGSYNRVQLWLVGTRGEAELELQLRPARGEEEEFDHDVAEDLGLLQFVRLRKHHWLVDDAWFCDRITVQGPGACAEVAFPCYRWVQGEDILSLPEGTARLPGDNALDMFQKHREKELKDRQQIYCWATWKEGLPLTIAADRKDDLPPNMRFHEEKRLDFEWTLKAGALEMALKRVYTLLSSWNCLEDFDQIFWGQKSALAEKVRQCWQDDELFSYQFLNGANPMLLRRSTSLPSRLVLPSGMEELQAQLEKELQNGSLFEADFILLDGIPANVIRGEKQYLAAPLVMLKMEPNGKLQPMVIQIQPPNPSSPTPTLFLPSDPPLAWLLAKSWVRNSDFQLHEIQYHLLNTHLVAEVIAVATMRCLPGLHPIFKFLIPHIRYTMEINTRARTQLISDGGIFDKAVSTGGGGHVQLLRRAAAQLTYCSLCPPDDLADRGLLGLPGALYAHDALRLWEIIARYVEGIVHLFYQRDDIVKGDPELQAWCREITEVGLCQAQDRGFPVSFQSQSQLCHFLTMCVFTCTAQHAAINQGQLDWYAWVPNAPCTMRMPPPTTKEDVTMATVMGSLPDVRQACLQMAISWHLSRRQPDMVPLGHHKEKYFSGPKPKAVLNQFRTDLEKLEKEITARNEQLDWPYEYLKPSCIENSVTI
# experimental.protocol: 12-LO inhibition in intact human neutrophils
# protocol.conditions: without DTT
pIC50: −log10 of the molar value.
assay.readout: pIC50

Data request: Which measured pIC50 value corresponds to CC1(C)CCC2=C(O1)c1ccccc1C(=O)C2=O ?
Data returned: < 4.52

---

# measured.target: 5-LO (Homo sapiens)
# Sequence (P09917 1-674): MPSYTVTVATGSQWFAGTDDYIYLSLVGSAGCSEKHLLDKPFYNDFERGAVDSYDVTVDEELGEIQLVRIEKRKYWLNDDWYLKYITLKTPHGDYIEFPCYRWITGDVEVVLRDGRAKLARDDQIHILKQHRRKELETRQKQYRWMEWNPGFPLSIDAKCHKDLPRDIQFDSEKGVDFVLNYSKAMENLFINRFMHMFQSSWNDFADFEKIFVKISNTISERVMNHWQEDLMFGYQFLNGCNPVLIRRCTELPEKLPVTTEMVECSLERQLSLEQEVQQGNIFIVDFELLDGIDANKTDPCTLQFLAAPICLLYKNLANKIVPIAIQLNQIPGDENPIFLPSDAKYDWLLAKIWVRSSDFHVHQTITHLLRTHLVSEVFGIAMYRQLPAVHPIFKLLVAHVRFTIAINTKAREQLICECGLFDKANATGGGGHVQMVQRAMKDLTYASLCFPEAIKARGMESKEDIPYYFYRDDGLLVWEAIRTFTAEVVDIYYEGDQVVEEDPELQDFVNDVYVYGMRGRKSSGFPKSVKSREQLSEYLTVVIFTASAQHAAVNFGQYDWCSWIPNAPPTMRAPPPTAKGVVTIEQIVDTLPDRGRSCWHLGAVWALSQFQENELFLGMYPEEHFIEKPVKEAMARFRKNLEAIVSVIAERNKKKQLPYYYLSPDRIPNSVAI
# experimental.protocol: Cell-free activity assay of human recombinant 5-LO
# Format: biochemical
# Parameters: made in house; host or cells: E. coli (BL21), plasmid pT3-5-LO
# protocol.conditions: 30 μg/mL phosphatidylcholine, n=3; read-out: IC50 (30 μg/mL, PC), competition assay with phosphatidylcholine
assay.readout: IC50 (µM)
Numbers only here, please. The scale is µM.

Data request: Which measured IC50 value corresponds to CC1(C)CCC2=C(O1)c1ccccc1C(=O)C2=O [Compound 1] ?
Data returned: 1
